experiment: logP by HPLC on reversed phase columns (EEC directive 79/831 Annex V.A8); type: physicochemical; details: method [a]: LC-MS at pH 2.7, 0.1% formic acid in water / acetonitrile; compounds of formula (I), Table 1
endpointLabel: logP

Ask | Give a short answer stating reported logP for CC(C)C1Cc2c(NC(=O)c3cn(C)nc3C(F)(F)F)cccc2C1(C)C (centres unmarked) .
Reply | 4.46[a]

Ask | // fetch logP given entry CCC1Cc2c(NC(=O)c3c(C)nn(C)c3C(F)(F)Cl)cccc2C1(C)C (centres unmarked)
Reply | 4.46[a]

Ask | Return logP for the following molecule: CCC1Cc2c(NC(=O)c3cn(C)nc3C(C)C)cccc2C1(C)C (racemic)
Reply | 4.18[a]

Ask | Identify measured logP corresponding to Cc1c(C(=O)Nc2cccc3c2CC(C(C)C)C3(C)C)c(C(F)(F)F)nn1C (centres unmarked)
Reply | 4.66[a]

Ask | State, in one line, measured logP of Cc1nn(C)c(Cl)c1C(=O)Nc1cccc2c1CC(C)C2(C)C (racemic)
Reply | 3.83[a]
